Provenance of the data: paper PMC3076703

# TARGET DESC: UGT1A8 (Homo sapiens, UniProt Q9HAW9)
# Sequence (Q9HAW9 26-530): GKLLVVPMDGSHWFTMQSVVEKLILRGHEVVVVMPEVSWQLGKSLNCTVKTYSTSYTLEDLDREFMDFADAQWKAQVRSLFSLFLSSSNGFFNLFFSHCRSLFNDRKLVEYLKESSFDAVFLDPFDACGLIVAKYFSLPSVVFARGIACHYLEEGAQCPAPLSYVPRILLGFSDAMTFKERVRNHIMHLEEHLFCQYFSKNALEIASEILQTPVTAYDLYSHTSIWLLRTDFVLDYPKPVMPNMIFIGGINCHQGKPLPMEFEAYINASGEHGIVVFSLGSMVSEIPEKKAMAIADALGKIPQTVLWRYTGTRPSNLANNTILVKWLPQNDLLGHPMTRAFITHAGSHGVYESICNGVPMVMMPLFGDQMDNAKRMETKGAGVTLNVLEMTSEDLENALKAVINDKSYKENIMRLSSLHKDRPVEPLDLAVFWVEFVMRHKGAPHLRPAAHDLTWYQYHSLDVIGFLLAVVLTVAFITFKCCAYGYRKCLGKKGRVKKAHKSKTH
# TEST DETAILS: Glucuronidation assay, UGT1A8-overexpressing HEK293 cell homogenate
# Format: in vitro ADME
MEASUREMENT TYPE: Km (µM)

[
  {
    "MOLECULE": "C=C1C[C@H]2[C@@H]3CC[C@H](O)[C@@]3(C)CC[C@@H]2[C@@]2(C)C=CC(=O)C=C12 [17-dihydroexemestane]",
    "TARGET DESC": "UGT1A8 (Homo sapiens, UniProt Q9HAW9)",
    "MEASUREMENT TYPE": "Km",
    "TEST VALUE": 14
  }
]

====

# TARGET DESC: UGT1A4^24Thr/48Leu (Homo sapiens)
# Sequence (P22310 29-534): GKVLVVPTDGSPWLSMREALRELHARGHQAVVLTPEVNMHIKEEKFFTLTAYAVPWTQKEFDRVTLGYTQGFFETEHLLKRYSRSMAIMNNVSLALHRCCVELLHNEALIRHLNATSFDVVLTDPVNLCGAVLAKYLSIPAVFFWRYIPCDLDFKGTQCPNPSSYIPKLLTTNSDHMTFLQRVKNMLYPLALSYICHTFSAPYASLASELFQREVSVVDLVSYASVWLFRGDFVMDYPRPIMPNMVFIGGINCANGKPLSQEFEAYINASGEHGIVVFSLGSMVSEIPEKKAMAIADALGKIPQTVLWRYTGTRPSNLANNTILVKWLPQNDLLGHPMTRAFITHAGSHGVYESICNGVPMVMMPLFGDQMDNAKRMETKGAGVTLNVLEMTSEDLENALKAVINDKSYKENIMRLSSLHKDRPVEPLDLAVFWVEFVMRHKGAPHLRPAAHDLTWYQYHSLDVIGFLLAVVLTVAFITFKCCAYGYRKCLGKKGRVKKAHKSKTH
# TEST DETAILS: Glucuronidation assay, UGT1A4 24Thr/48Leu-overexpressing HEK293 cell homogenate
# Assay type: in vitro ADME
MEASUREMENT TYPE: Km (µM)

[
  {
    "COMPOUND": "C=C1C[C@H]2[C@@H]3CC[C@H](O)[C@@]3(C)CC[C@@H]2[C@@]2(C)C=CC(=O)C=C12 [17-dihydroexemestane]",
    "MEASUREMENT TYPE": "Km",
    "TEST VALUE": 28
  }
]
